tested on: THRa homodimer (NR concentration 90 nM); test: PBM binding z-score (relative to random genomic background probes); higher = stronger binding; sequences stand for … in GC…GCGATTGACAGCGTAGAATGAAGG
Please note: Met applies when PBM binding z-score is 0.4 or greater, and Not met applies otherwise.

INSERT INTO measurements (residue_sequence, class) VALUES
  ('CCGACAGGGGCAAGGTTACCATAACGCACAGCCA', 'Met'),
  ('TCTAGTTGGTCACGGAGGTCACTCACGACGGGTA', 'Met'),
  ('TTACCAAGGTGAAAGGTCGTTTATGCACGCCTTG', 'Met'),
  ('ACTATTAGTTGACTTAGGGCAACCAATACGACGC', 'Not met'),
  ('TTACCAAGGTGAAGCTCGTTGATCCCTCTGTAGA', 'Not met');

We next turn to a different sequence, shown below.
Quick check, PBM binding z-score >= 0.4? `TTACCAAGGTGATGGTCGTTGATCCCTCTGTAGA` Not met

###

test system: VDR homodimer (NR concentration 270 nM); assay: PBM binding z-score (relative to random genomic background probes); higher = stronger binding; sequences stand for … in GC…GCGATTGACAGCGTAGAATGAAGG
Please note: t applies when PBM binding z-score is 1 or greater, and f applies otherwise.

INSERT INTO results (residue_sequence, class) VALUES
  ('CCTAACGGGTCACTCCAGGTTATAGCATCGGAGT', 't'),
  ('CTCGAAAGGTCGTGCTAAGGTGAGTATACCAAAC', 't'),
  ('CAAACTAGTTCACGAAAGGTCAAAGTCGAATGAC', 't'),
  ('GCTGCTAGGTCAACTGATGGTAAGCTAAAGCTCG', 'f'),
  ('CGAACTAGGTCTTCCAGGACAGTGAATACATTGA', 'f');

We next turn to a different sequence, shown below.
Quick check, PBM binding z-score >= 1? `CCTTACGGGTCACTGACAGGTTATAACATTTGGA` t

###

test system: VDR:RXRa (NR concentration 270 nM, RXRa partner concentration 90 nM); assay: PBM binding z-score (relative to random genomic background probes); higher = stronger binding; sequences stand for … in GC…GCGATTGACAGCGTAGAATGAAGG
Here, each record is paired with measured PBM binding z-score data.
Reply with the value as a number alone.

Example entries begin here.
INSERT INTO results (residue_sequence, measured_value) VALUES
  ('CCTACTGGGCCACGAAGGGTCATTGATTCAGTGA', 3.09),
  ('CTCGAAAGGTCGTGCGCAGGTGAGTATACCAAAC', 3.64),
  ('TCATAAAGGTAATACAGGTGAAAGTCGGCATCTA', 1.72),
  ('AGTCAAAGTTCACTGGGTAACGTAAGATTCAGCT', 4.34),
  ('AGAATGAGGTTATACGTAGATGAGGGAAGAAAGT', 1.53);

Lab note: next sequence to report on.
Sample `GATACAGGGTCAGCTATAGGCCAGAGTATGGAAA` — what was its PBM binding z-score? 2.46

###

Here, each record is paired with measured PBM binding z-score data.
tested on: THRa:RXRa (NR concentration 90 nM, RXRa partner concentration 90 nM); test: PBM binding z-score (relative to random genomic background probes); higher = stronger binding; sequences stand for … in GC…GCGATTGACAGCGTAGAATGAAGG
Reply with the value as a number alone.

Example entries begin here.
INSERT INTO measurements (residue_sequence, assay_metric, measured_value) VALUES
  ('CGTCAAAGTTCAAGGTAACATAACAGAAAGCAGC', 'PBM binding z-score', 2.92),
  ('TCTATTAGGTGATTAGGGCAACCGAAACAGCGGA', 'PBM binding z-score', 1.24),
  ('CCTAGCAGGCCAGGGTCACGCAAGCATTTCGCTT', 'PBM binding z-score', 3.6),
  ('ATCTCTGGGTAACAAGTTCAGTGAAAGAGAGGAC', 'PBM binding z-score', 1.21),
  ('CAGCCTAGGTCAGGGCCAGTATCGGAGGAACGTT', 'PBM binding z-score', 1.96),
  ('GATACAGGGTCAGCGAGAGGCCAGAGTATGGAAA', 'PBM binding z-score', 3.3);

Sample `CGTCAAAGTTCAGGGTAACGTAACAGAAAGCAGC` — what was its PBM binding z-score? 2.14

Sample `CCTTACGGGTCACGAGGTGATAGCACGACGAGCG` — what was its PBM binding z-score? 3.48

Sample `TAGCCTAGGTCCTTGGGCCAGTATAGTACGCATC` — what was its PBM binding z-score? -0.732

Sample `TCAGCCAGGTGAAGGTAACTCAGGTACGCAGTCG` — what was its PBM binding z-score? 1.8

Sample `CCAGACAGGTGAGAATGTAACTCAGCCTCGATTA` — what was its PBM binding z-score? -0.103

Where these numbers come from: the supplement of paper PMC6555819
